Exercise: for every item that follows, state its recorded SARS-CoV-2 infection rate.
# Test system: Vero E6 infected with SARS-CoV-2
# METHOD_DESCRIPTION: SARS-CoV-2 infection rate relative to infected DMSO; higher = more infection, active = 60 or less
# STUDY_CONDITIONS: 24 h
Numbers only, in %.

Solved entries:
Requested read-out: SARS-CoV-2 infection rate. Entry: CCn1c(=O)/c(=C2\Sc3ccccc3N2C)s/c1=C\c1cccc[n+]1CC (10 µM)
106

Requested read-out: SARS-CoV-2 infection rate. Entry: N#CC(c1ccc(Cl)cc1)c1c(Cl)cc(-n2ncc(=O)[nH]c2=O)cc1Cl (stereo not drawn) [diclazuril] (10 µM)
93

Requested read-out: SARS-CoV-2 infection rate. Entry: Cc1ccc(CCCO)c(NCc2ccc3nc(NCCCN4CCOCC4)n(Cc4nc(C)ccc4O)c3c2)c1 (10 µM)
96.5

Each of the following entries comes with a recorded value; kindly state SARS-CoV-2 infection rate for each.
1. Oc1c(I)cc(Cl)c2cccnc12 [clioquinol] (10 µM)
2. C[C@@H]1C[C@H]2[C@@H]3C[C@H](F)C4=CC(=O)C=C[C@]4(C)[C@@]3(Cl)[C@@H](O)C[C@]2(C)[C@H]1C(=O)COC(=O)C(C)(C)C [clocortolone-pivalate] (10 µM)

90
98

Each of the following entries comes with a recorded value; kindly state SARS-CoV-2 infection rate for each.
1. O=C(O)CCNC(=O)c1ccccc1 [betamipron] (10 µM)
2. Cn1c(COP(=O)(NCCBr)NCCBr)cnc1[N+](=O)[O-] (10 µM)

118
106

Requested read-out: SARS-CoV-2 infection rate. Entry: Cn1ncc2c(N3CCOCC3)nc(-c3cccc(O)c3)nc21 (10 µM)
114
